Biological target: PSMA-expressing C4-2 cells (Homo sapiens)
Construct: PSMA-expressing C4-2 cells (ATCC, Cat. No. CRL-3314) were cultured in RPMI-1640; host or cells: C4-2 cells
Sequence (Q04609 whole entry): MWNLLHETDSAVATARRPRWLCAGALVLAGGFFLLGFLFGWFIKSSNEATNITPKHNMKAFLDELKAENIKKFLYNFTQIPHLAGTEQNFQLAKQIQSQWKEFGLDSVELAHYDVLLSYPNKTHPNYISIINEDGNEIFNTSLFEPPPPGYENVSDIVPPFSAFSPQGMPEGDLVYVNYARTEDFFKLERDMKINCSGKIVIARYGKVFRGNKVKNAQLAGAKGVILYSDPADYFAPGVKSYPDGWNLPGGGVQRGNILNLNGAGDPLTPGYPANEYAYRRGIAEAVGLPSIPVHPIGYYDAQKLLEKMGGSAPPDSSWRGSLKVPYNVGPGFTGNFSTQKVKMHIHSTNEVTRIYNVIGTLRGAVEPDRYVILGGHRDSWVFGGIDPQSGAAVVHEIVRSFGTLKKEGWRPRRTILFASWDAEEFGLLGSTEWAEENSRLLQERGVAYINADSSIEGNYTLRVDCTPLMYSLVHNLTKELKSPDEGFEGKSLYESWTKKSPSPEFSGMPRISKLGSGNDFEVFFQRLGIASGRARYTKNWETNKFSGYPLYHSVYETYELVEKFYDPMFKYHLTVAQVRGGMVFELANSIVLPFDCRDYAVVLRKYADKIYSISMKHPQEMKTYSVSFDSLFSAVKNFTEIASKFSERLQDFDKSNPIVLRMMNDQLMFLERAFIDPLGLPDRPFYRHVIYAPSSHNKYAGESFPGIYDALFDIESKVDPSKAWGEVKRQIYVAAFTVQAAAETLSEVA
Test: FACS binding assay (competition with 50 nM PSM-0183)
Details: FACS binding, PSMA-expressing C4-2 cells; pIC50 category; read-out: pIC50 [C4-2] CAT (converted)
Numbered stars: 1 amine (or outer) side, 2 acyl side, 3 side chain; on linkers, the order of the positions; unused ones are H or OH. Bridge positions count the residues as written; N and C are the ends. Square brackets hold non-standard residues; d marks the D form. Peptide text beside a SMILES is read from it. * marks the point of attachment. DOTA = O=C(O)CN1CCN(CC(=O)O)CCN(CC(=O)*)CCN(CC(=O)O)CC1; Phe(3-Cl) = N[C@@H](Cc1cccc(Cl)c1)C(=O)O; Phe(4-Cl) = N[C@@H](Cc1ccc(Cl)cc1)C(=O)O; X1 = O=C(CC1CCN([*:1])CC1)[*:2]; Cit = NC(=O)NCCC[C@H](N)C(=O)O; d(αMeS) = C[C@@](N)(CO)C(=O)O; Tle = CC(C)(C)[C@H](N)C(=O)O; Aib = CC(C)(N)C(=O)O

# molecule, IC50
measured = [
    ("C[C@@H](O)[C@H](NC(=O)[C@@H](NC(=O)[C@@H]1CSSC[C@H](NC(=O)[C@H](Cc2ccc(Cl)cc2)NC(=O)C(C)(C)NC(=O)[C@@H](NC(=O)CC2CCN(C(=O)CN3CCN(CC(=O)O)CCN(CC(=O)O)CCN(CC(=O)O)CC3)CC2)[C@@H](C)O)C(=O)N[C@@H](CCCCN)C(=O)N[C@@H](CCCNC(=N)N)C(=O)N[C@](C)(CO)C(=O)N[C@@H](CC(N)=O)C(=O)N1)C(C)(C)C)C(N)=O [PSM-0314] ({DOTA}-[X1]T[Aib][Phe(4-Cl)]CKR[d(αMeS)]NC[Tle]T-NH2; disulfide 5-10)", "< 200 nM"),
    ("CC(=O)N[C@H](C(=O)NC(C)(C)C(=O)N[C@@H](Cc1cccc(Cl)c1)C(=O)N[C@H]1CSSC[C@@H](C(=O)N[C@H](C(=O)N[C@H](C(=O)N2CCC(CC(=O)N[C@H](CCCCNC(=O)CN3CCN(CC(=O)O)CCN(CC(=O)O)CCN(CC(=O)O)CC3)C(N)=O)CC2)[C@@H](C)O)C(C)(C)C)NC(=O)[C@H](CC(N)=O)NC(=O)C(C)(C)NC(=O)[C@H](CCCNC(N)=O)NC(=O)[C@H](CCCCN)NC1=O)[C@@H](C)O [PSM-0275] (Ac-T[Aib][Phe(3-Cl)]CK[Cit][Aib]NC[Tle]T[X1][dK](DOTA)-NH2; disulfide 4-9)", "200 to 1260 nM"),
]
